- study_target: IRAK4 (Homo sapiens, UniProt Q9NWZ3)
- Construct: knocking-in a HiBiT fusion tag into the C-terminal of the IRAK4 gene in 293T cells; host or cells: 293T cells, knock-in of HiBiT at the endogenous IRAK4 locus
- Sequence (Q9NWZ3 whole entry, the tested form may be a part): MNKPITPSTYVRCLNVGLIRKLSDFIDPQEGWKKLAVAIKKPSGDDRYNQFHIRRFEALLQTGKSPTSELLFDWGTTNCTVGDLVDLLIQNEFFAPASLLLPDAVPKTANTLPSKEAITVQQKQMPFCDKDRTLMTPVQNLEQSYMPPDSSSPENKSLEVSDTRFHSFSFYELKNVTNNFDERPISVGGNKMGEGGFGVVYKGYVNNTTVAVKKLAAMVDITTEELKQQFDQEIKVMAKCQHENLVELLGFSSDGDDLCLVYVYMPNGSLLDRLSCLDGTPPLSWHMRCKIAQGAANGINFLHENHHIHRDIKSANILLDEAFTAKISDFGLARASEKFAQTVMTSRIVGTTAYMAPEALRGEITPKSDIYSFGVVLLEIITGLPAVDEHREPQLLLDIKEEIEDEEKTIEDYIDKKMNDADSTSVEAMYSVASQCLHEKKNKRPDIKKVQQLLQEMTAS
- assay_procedure: IRAK4 degradation assay using the HiBiT Method
- Assay type: cell-based
- condition_details: 293T cells expressing HiBiT-tagged IRAK4; 6-hour incubation; Nano-Glo HiBiT Lytic Assay luminescence
experimental_readout: DC50

I have 6 compounds here; please give me DC50 for each one.
1. CC(C)Oc1cc2nc([C@H]3CC[C@H](CN4CCC(c5cccc(NC6CCC(=O)NC6=O)c5F)CC4)CC3)cn2cc1NC(=O)c1cccc(C(F)(F)F)n1 (stereo partly shown) [Example 38]
2. CC(C)Oc1cc2nc(C3CCN(CCN4CCN(c5ccc(C6CCC(=O)NC6=O)cc5)CC4)CC3)cn2cc1NC(=O)c1cccc(C(F)(F)F)n1 (stereo not shown) [Example 65]
3. CC(C)Oc1cc2nc(C3CCN(C(=O)CN4CCC(c5ccc(C6CCC(=O)NC6=O)cc5)CC4)CC3)cn2cc1NC(=O)c1cccc(C(F)(F)F)n1 (stereo not shown) [Example 4]
4. CC(C)Oc1cc2nc(C3CCN(C(=O)CN4CCC(c5cccc(NC6CCC(=O)NC6=O)c5F)CC4)CC3)cn2cc1NC(=O)c1cccc(C(F)(F)F)n1 (stereo not shown) [Example 2]
5. CC(C)Oc1cc2nc(C3CCN(C(=O)CN4CCC(c5cccc(NC6CCC(=O)NC6=O)c5)CC4)CC3)cn2cc1NC(=O)c1cccc(C(F)(F)F)n1 (stereo not shown) [Example 3]
6. CC(C)Oc1cc2nc([C@H]3CC[C@H](CN(C)C4CCN(c5ccc6c(c5)n(C)c(=O)n6C5CCC(=O)NC5=O)CC4)CC3)cn2cc1NC(=O)c1cccc(C(F)(F)F)n1 (stereo partly shown) [Example 45]

**A:**
["100 to 500 nM", "10 to 100 nM", "100 to 500 nM", "10 to 100 nM", "100 to 500 nM", "500 to 1000 nM"]

**Q:** Quick one: DC50 for CC(C)Oc1cc2nc(C3CCN(C(=O)CN4CCC(c5ccc(C6CCC(=O)NC6=O)cc5)CC4)C3)cn2cc1NC(=O)c1cccc(C(F)(F)F)n1 (stereo not shown) [Example 75] ?
**A:** 10 to 100 nM
